Values compiled from ChEMBL document CHEMBL1833871.

Molecular target: Neuraminidase (Influenza A virus (A/Puerto Rico/8/1934(H1N1)))
Sequence (P03468 whole entry): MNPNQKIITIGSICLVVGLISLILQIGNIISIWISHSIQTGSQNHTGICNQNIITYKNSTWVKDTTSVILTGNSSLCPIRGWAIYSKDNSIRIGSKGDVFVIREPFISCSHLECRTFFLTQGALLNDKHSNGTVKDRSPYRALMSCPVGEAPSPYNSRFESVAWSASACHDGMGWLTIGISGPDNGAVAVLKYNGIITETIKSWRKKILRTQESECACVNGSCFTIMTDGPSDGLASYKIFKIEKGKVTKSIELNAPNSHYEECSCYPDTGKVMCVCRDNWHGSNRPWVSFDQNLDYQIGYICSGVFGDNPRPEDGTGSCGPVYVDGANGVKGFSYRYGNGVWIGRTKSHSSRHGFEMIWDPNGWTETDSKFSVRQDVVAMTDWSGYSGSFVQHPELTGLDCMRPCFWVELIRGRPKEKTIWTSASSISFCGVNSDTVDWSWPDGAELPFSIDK
Test: Inhibition of influenza A virus A/PR/8/34(H1N1) neuraminidase assessed as fluorescent product using MUNANA as substrate after 60 mins by fluorescence analysis
I'd appreciate it if you could supply IC50 values for the items below.
Report only the number, with the unit µM understood.

Would you mind telling me what IC50 value was observed for O=c1cc(-c2ccc(O)cc2)oc2c(CN3CCOCC3)c(O)cc(O)c12 ?
50.5

Return reported IC50; argument: O=c1cc(-c2ccc(O)cc2)oc2c(CN3[C@H](O)COC[C@@H]3O)c(O)cc(O)c12
64

Record request: IC50 value, item CC1CCCCN1Cc1c(O)c(O)c(O)c2c(=O)cc(-c3ccccc3)oc12 (stereo not given)
99.7

Requested read-out: IC50. Entry: O=c1cc(-c2ccccc2)oc2c(CN3CCC(O)CC3)c(O)cc(O)c12
295

Request the reported IC50 associated with O=c1cc(-c2ccc(O)cc2)oc2c(CN3CCCC3)c(O)cc(O)c12
44.5

IC50 for O=c1cc(-c2ccccc2)oc2c(CN3CCCC3)c(O)c(O)c(O)c12 ?
107

IC50 for O=c1cc(-c2ccc(O)c(O)c2)oc2c(CN3CCCC(O)C3)c(O)cc(O)c12 (stereo not given) ?
63.6

Param item = C[C@@H]1COC[C@H](C)N1Cc1c(O)cc(O)c2c(=O)cc(-c3ccc(O)c(O)c3)oc12 ; retrieve measured IC50.
43.5

Fill in: IC50 of O=c1cc(-c2ccc(O)cc2)oc2c(CN3CCN(Cc4ccccc4)CC3)c(O)cc(O)c12 is ___
48.5

Looking for the measured IC50 of O=c1cc(-c2ccc(O)cc2)oc2c(CN3CCC[C@H]3CO)c(O)cc(O)c12 , can you help?
49.7
